Please respond with reported half-life for every item in the list.
Assay: Half life in Swiss mouse brain
Type: ADME, tissue-based

# compound, half-life
rows = [
    ("c1cc([C@H]2CC[C@H](N3CCOCC3)CC2)ccc1OCCCN1CCCCC1", "> 10 h"),
]

# next compound below
Task: Give the measured half-life of OC1CCN([C@H]2CC[C@H](c3ccc(OCCCN4CCCCC4)cc3)CC2)CC1 (mixture of isomers) .
Result: > 10 h

----------
Could you please report measured AUC for the items listed next?
Assay: AUC in Swiss mouse plasma
Type: ADME
One number for each entry, in ng·h/mL.

# molecule, endpoint-name, observed
records = [
    ("OC1CCN([C@H]2CC[C@H](c3ccc(OCCCN4CCCCC4)cc3)CC2)CC1 (mixture of isomers)", "AUC", 1520),
]

Task: # query: AUC of entry c1cc([C@H]2CC[C@H](N3CCOCC3)CC2)ccc1OCCCN1CCCCC1
Result: 2110

----------
Target: Histamine H3 receptor (Mus musculus)
Sequence (P58406 whole entry): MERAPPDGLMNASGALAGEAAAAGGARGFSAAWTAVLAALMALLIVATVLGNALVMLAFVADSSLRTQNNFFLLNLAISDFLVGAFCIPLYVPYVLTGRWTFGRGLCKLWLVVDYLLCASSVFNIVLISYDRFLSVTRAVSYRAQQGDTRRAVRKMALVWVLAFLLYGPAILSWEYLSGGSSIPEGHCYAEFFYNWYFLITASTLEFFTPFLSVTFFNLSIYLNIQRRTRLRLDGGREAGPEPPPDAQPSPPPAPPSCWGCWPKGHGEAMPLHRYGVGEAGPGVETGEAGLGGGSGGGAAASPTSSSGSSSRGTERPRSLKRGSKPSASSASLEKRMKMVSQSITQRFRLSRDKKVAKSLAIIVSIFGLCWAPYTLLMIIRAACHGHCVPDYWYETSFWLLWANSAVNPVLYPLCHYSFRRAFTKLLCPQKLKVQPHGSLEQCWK
Can you tell me pKi for the items I'm about to list?
Answers are plain numbers, as −log10 of the molar value.

# compound, pKi
measured = [
    ("C=CC(O)c1ccc(OCCCN2CCCCC2)cc1 (configuration not stated)", 7.74),
]

Consider the additional compound presented here.
Task: Which measured pKi value corresponds to CCCC(O)(CCC)c1ccc(OCCCN2CCCCC2)cc1 ?
Result: 8.60

----------
Assay: Half life in Swiss mouse plasma
Type: ADME
endpoint-name: half-life (h)
Give bare numbers, in h.

# molecule, endpoint-name, observed
measured = [
    ("OC1CCN([C@H]2CC[C@H](c3ccc(OCCCN4CCCCC4)cc3)CC2)CC1 (mixture of isomers)", "half-life", 6),
]

Now for a further molecule.
Task: Form field: reported half-life of c1cc([C@H]2CC[C@H](N3CCOCC3)CC2)ccc1OCCCN1CCCCC1
Result: 5

----------
Molecular target: Cytochrome P450 2C9 (Homo sapiens)
Sequence (P11712 whole entry): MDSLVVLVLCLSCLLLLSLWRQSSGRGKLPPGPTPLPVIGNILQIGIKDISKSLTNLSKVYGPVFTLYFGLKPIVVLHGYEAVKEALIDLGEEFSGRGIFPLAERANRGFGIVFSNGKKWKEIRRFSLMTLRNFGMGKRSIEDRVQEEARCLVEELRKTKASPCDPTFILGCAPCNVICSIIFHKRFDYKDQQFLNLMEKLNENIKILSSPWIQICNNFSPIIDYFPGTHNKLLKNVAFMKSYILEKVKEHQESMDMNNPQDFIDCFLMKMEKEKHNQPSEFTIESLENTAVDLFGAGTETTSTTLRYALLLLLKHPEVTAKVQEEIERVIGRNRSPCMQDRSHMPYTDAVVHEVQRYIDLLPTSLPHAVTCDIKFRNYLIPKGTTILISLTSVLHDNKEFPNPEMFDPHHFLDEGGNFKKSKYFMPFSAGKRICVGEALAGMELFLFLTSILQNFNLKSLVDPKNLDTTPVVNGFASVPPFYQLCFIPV
Assay: Inhibition of human recombinant CYP2C9
endpoint-name: IC50 (µM)
Give bare numbers, in µM.

Task: What value of IC50 has been reported for the following molecule? O[C@H]1CC[C@H](c2ccc(OCCCN3CCCCC3)cc2)CC1
Result: 40.3

----------
Molecular target: UniProt Q9Y5N1
Experiment: Displacement of [125I]-iodoproxyfan from human recombinant histamine H3 receptor expressed in HEK293 cells after 1 hr by gamma counting analysis
endpoint-name: pKi
Answers are plain numbers, as −log10 of the molar value.

// known answers, use as guide
# molecule, observed
records = [
    ("OCc1ccc(OCCCN2CCCCC2)cc1", 7.64),
    ("CC(C)(O)CCc1ccc(OCCCN2CCCCC2)cc1", 8.40),
    ("C=CCC(O)(CC=C)c1ccc(OCCCN2CCCCC2)cc1", 9.27),
    ("CC(O)CCc1ccc(OCCCN2CCCCC2)cc1 (stereo not given)", 8.48),
]

Task: Which pKi is listed for OC(c1ccc(OCCCN2CCCCC2)cc1)C1CCCCC1 (stereo not given) ?
Result: 8.54

----------
Target: Histamine H3 receptor (Homo sapiens, UniProt Q9Y5N1)
Sequence (Q9Y5N1 whole entry): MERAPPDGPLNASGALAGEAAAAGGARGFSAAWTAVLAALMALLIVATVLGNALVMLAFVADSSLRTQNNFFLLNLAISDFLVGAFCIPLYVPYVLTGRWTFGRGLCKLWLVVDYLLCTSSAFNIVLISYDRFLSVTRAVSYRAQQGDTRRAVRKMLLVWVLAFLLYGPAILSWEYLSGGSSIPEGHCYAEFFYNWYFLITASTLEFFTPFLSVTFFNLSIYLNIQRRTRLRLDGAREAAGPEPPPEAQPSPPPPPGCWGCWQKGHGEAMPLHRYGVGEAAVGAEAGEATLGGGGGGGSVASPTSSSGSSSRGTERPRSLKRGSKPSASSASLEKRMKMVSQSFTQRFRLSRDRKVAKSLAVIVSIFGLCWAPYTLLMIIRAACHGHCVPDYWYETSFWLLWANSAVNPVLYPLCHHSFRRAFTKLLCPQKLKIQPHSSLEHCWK
Test: Displacement of [125I]-iodoproxyfan from human recombinant histamine H3 receptor expressed in HEK293 cells after 1 hr by gamma counting analysis
endpoint-name: Ki (nM)
One number for each entry, in nM.

Take a look at these entries with their results.
# molecule, Ki (nM)
records = [
    ("C=CC(O)c1ccc(OCCCN2CCCCC2)cc1 (stereo not drawn)", 8.6),
    ("OCCC#Cc1ccc(OCCCN2CCCCC2)cc1", 19),
    ("OC1(c2ccc(OCCCN3CCCCC3)cc2)CCC1", 18),
]

Please supply Ki for each of the following items, keeping them in order.
1. C=CCC(O)c1ccc(OCCCN2CCCCC2)cc1 (stereo not drawn)
2. OCC#Cc1ccc(OCCCN2CCCCC2)cc1
3. OC1CCC(Cc2ccc(OCCCN3CCCCC3)cc2)CC1 (stereo not drawn)
4. OC1(c2ccc(OCCCN3CCCCC3)cc2)CCOCC1
5. OC1(c2ccc(OCCCN3CCCCC3)cc2)CCCCC1
6. OC(c1ccc(OCCCN2CCCCC2)cc1)C1CCOCC1 (stereo not drawn)

Result:
1: 6.9; 2: 15; 3: 1.9; 4: 4.1; 5: 3.9; 6: 13

----------
Experiment: AUC (0 to 8 hrs) in Swiss mouse plasma at 10 mg/kg, po by […] analysis
Assay type: ADME, organism-based
Set-up: time < 8 hr, dose 10 mg/kg, route oral
endpoint-name: AUC(0-t) at 8 h (ng·h/mL)
One number for each entry, in ng·h/mL.

Task: Param item = O[C@H]1CC[C@H](c2ccc(OCCCN3CCCCC3)cc2)CC1 ; retrieve measured AUC(0-t) at 8 h.
Result: 4980

----------
Experiment: AUC in Swiss mouse brain
Type: ADME, organism-based
Answer each item with its documented AUC.

# molecule, AUC
measured = [
    ("c1cc([C@H]2CC[C@H](N3CCOCC3)CC2)ccc1OCCCN1CCCCC1", "15600 ng·h/mL"),
]

// moving on: another record for AUC
Task: // AUC lookup, key: OC1CCN([C@H]2CC[C@H](c3ccc(OCCCN4CCCCC4)cc3)CC2)CC1 (mixture of isomers)
Result: 1520 ng·h/mL

----------
Assay: Half life of the compound
Type: physicochemical
endpoint-name: half-life (h)
One number for each entry, in h.

Task: Quick check: half-life of COCCCS(=O)(=O)c1ccc(-c2ccc(CCN3CCC[C@H]3C)cc2)cc1 ?
Result: 50

----------
Experiment: Cmax in Swiss mouse brain
Assay type: ADME, tissue-based
So I've got a bunch of molecules here, and I need their Cmax values.
Answers are plain numbers, in ng/mL.

# molecule, value-unit, Cmax
data = [
    ("OC1CCN([C@H]2CC[C@H](c3ccc(OCCCN4CCCCC4)cc3)CC2)CC1 (mixture of isomers)", "ng/mL", 215),
]

Next up:
Task: Item under review: c1cc([C@H]2CC[C@H](N3CCOCC3)CC2)ccc1OCCCN1CCCCC1 . Reported Cmax?
Result: 2380

----------
Provide the reported Tmax of each item.
Experiment: Tmax in Swiss mouse plasma
Assay type: ADME
In your response, put the unit directly after the numeric value.

# molecule, Tmax
data = [
    ("c1cc([C@H]2CC[C@H](N3CCOCC3)CC2)ccc1OCCCN1CCCCC1", "1.5 h"),
]

Task: Quick check: Tmax of OC1CCN([C@H]2CC[C@H](c3ccc(OCCCN4CCCCC4)cc3)CC2)CC1 (mixture of isomers) ?
Result: 1.5 h

----------
Assay: Tmax in Swiss mouse brain
Assay type: ADME, tissue-based
Exercise: for every item that follows, state its recorded Tmax.
Answers are plain numbers, in h.

# compound, endpoint-name, observed
measured = [
    ("c1cc([C@H]2CC[C@H](N3CCOCC3)CC2)ccc1OCCCN1CCCCC1", "Tmax", 1.5),
]

Attention now shifts to the item below.
Task: Report Tmax for OC1CCN([C@H]2CC[C@H](c3ccc(OCCCN4CCCCC4)cc3)CC2)CC1 (mixture of isomers) please.
Result: 3

----------
Biological target: Histamine H3 receptor (Homo sapiens, UniProt Q9Y5N1)
Experiment: Displacement of [125I]-iodoproxyfan from human recombinant histamine H3 receptor expressed in HEK293 cells after 1 hr by gamma counting analysis
endpoint-name: Ki
Answer shape: numeric part, then the unit.

# structure-as-smiles, endpoint-name, observed
data = [
    ("CC(C)(O)c1ccc(OCCCN2CCCCC2)cc1", "Ki", "6.8 nM"),
    ("CCC(O)(CC)c1ccc(OCCCN2CCCCC2)cc1", "Ki", "1.4 nM"),
    ("OCCc1ccc(OCCCN2CCCCC2)cc1", "Ki", "32 nM"),
]

Now, please, on to the next molecule.
Task: Request the reported Ki associated with O[C@H]1CC[C@H](c2ccc(OCCCN3CCCCC3)cc2)CC1
Result: 2.6 nM
